These entries and their values trace back to patent US20250109203A1.

Target: human γδ TCR (Vγ9Vδ2) on human Vδ2+ γδ T cells (human) (UniProt A0JD36)
Experiment: flow cytometry on expanded human Vδ2+ γδ T cells, nonlinear fit
Experimental Readout: Kd (nM)

1. hu1D7v92 VHH-hIgG1 Fc-NNT (monomeric) (VHH) VHH: EVQLLESGGGEVQPGGSLRLSCVASRGKISQYRMGWYRQAPGKERELVAHISNTGDAAEYVDSVKDRFTISRDSTKNALYLQMSSLRAEDTAVYKCQNVEDILAWGQGTLVTVRP
2. hu1D7v22 VHH-hIgG1 Fc-NNT (monomeric) (VHH) VHH: EVQLLESGGGEVQPGGSLRLSCVASRGKISQYRMGWYRQAPGKGLEWVAHISNTGDAAEYVDSVKGRFTISRDSTKNTVYLQMSSLRAEDTAVYKCNSVEDILAWGQGTLVTVKP
3. hu1D7v18 VHH-hIgG1 Fc-NNT (monomeric) (VHH) VHH: EVQLLESGGGEVQPGGSLRLSCVASRGKISQYRMGWYRQAPGKGLEWVAHISNTGDAAEYAESVKGRFTISRDSTKNAVYLQMSSLRAEDTAVYKCNSVEDILAWGQGTLVTVKP
4. 1D7v113 VHH-hIgG1 Fc-NNT (monomeric) (VHH) VHH: EVQLLESGGGEVQPGGSLRLSCVASRGKISQYRMGWYRQAPGKERELVAHISNTGDAAEYVDLVKDRFTISRDSTKNALYLQMSSLRAEDTAVYKCNSVEDILAWGQGTLVTVRP
Task item: Quick one: which order do the items above go in by Kd, smallest to largest? The reply should contain the labels ordered as requested.
Reply: 2, 3, 1, 4
